Value type: IC50 (nM)
Report the figure in nM without appending any unit label.

State the measured IC50 (human ACC2 (Homo sapiens (Human), UniProt O00763)) of CC(C)Oc1cc(N2CCC(Oc3ccc([C@H](C)NC(=O)C4CCC4)cc3)C2)ccn1 (stereo partly drawn) 564

State the measured IC50 (human ACC2 (Homo sapiens (Human), UniProt O00763)) of CC(=O)N[C@@H](C)c1ccc(O[C@@H]2CCN(c3cccc(C(F)(F)F)n3)C2)cc1 62

State the measured IC50 (human ACC2 (Homo sapiens (Human), UniProt O00763)) of CC(=O)NC1CCCN(C(=O)N[C@@H](C)c2ccc(OC3CCN(c4ccc(OCC5CC5(F)F)cn4)C3)cc2)C1 (stereo partly drawn) 363

State the measured IC50 (human ACC2 (Homo sapiens (Human), UniProt O00763)) of CC(=O)N[C@@H](C)c1ccc(OC2CCN(c3cccc(C(F)F)n3)C2)cc1 (stereo partly drawn) 154

State the measured IC50 (human ACC2 (Homo sapiens (Human), UniProt O00763)) of CC(=O)N[C@@H](C)c1ccc(OC2CCN(c3cc(OCC(C)C)ncc3F)C2)cc1 (stereo partly drawn) 30

State the measured IC50 (human ACC2 (Homo sapiens (Human), UniProt O00763)) of CCN(C)C(=O)N[C@@H](C)c1ccc(OC2CCN(c3ccc(OCC4CC4(F)F)cn3)C2)cc1 (stereo partly drawn) 90

State the measured IC50 (human ACC2 (Homo sapiens (Human), UniProt O00763)) of C[C@H](NC(=O)c1cncs1)c1ccc(OC2CCN(c3ccnc(OCC(F)F)c3)C2)cc1 (stereo partly drawn) 76

State the measured IC50 (human ACC2 (Homo sapiens (Human), UniProt O00763)) of CC(=O)N[C@@H](C)c1ccc(OC2CCN(c3ccc(OCC(C)C)cn3)C2)cc1 (stereo partly drawn) 375

State the measured IC50 (human ACC2 (Homo sapiens (Human), UniProt O00763)) of C[C@H](NC(=O)CCO)c1ccc(OC2CCN(c3cccc(C(F)(F)F)n3)C2)cc1 (stereo partly drawn) 424

State the measured IC50 (human ACC2 (Homo sapiens (Human), UniProt O00763)) of CC(C)Oc1cc(N2CCC(Oc3ccc([C@H](C)NC(=O)CC(F)(F)F)cc3)C2)ccn1 (stereo partly drawn) 1000

State the measured IC50 (human ACC2 (Homo sapiens (Human), UniProt O00763)) of CCCOc1cc(C)c(N2CCC(Oc3ccc([C@H](C)NC(C)=O)cc3)C2)cn1 (stereo partly drawn) 401

State the measured IC50 (human ACC2 (Homo sapiens (Human), UniProt O00763)) of CC(=O)N[C@@H](C)c1ccc(O[C@@H]2CCN(c3ccnc(OC4CCCC4)c3F)C2)cc1 45

State the measured IC50 (human ACC2 (Homo sapiens (Human), UniProt O00763)) of C[C@H](NC(=O)N1CCOCC1)c1ccc(OC2CCN(c3ccnc(OCC(F)F)c3)C2)cc1 (stereo partly drawn) 497

State the measured IC50 (human ACC2 (Homo sapiens (Human), UniProt O00763)) of CCNC(=O)N[C@@H](C)c1ccc(OC2CCN(c3ccnc(OCC(F)F)c3)C2)cc1 (stereo partly drawn) 313

State the measured IC50 (human ACC2 (Homo sapiens (Human), UniProt O00763)) of CC(=O)N[C@@H](C)c1ccc(O[C@@H]2CCN(c3cccc(N(C)C)n3)C2)cc1 145

State the measured IC50 (human ACC2 (Homo sapiens (Human), UniProt O00763)) of CC(=O)N[C@@H](C)c1ccc(O[C@@H]2CCN(c3ccnc(OCC4CCCO4)c3)C2)cc1 (stereo partly drawn) 668

State the measured IC50 (human ACC2 (Homo sapiens (Human), UniProt O00763)) of Cc1c(N2CC[C@@H](Oc3ccc([C@H](C)NC(=O)/C=C/C4CC4)cc3)C2)ccnc1OCC1CC1 235

State the measured IC50 (human ACC2 (Homo sapiens (Human), UniProt O00763)) of C[C@H](NC(=O)c1cnn(C)c1)c1ccc(OC2CCN(c3cccc(C(F)(F)F)n3)C2)cc1 (stereo partly drawn) 130
